system: K562; test: NCI tumour cell line growth inhibition, 48 h
Active and inactive are the calls of the source. No stated cut-off is given here; in the data, active = GI50 up to about 1.1 µM and inactive = higher.
Outcome (select one): active, inactive

molecule	label_value
Nc1ccc2nc3n(c2c1)C(c1c(F)cccc1F)SC3 (configuration not stated)	inactive
CCCCCCCC/C=C\CCCCCCCC(=O)O [OLEIC ACID]	inactive
O=C1c2ccccc2-c2nc(-c3ccccc3)cc3c2c1nc1ccccc13	active
NNC(=O)c1ccc(OCc2nc3ccccc3[nH]2)cc1	inactive
O=C1C(=O)N(c2cc(Cl)ccc2Cl)C(=O)C(=O)C1c1nc2ccccc2o1	inactive

Kindly provide the recorded test outcome for the following molecule: CC1=NC(C)(C)[N+]([O-])=C1
inactive

Kindly provide the recorded test outcome for the following molecule: COC(=O)/C=C1\CCC(C)O1 (configuration not stated)
inactive

----------
// reported GI50 for each item listed
tested on: HL-60; assay: NCI tumour cell line growth inhibition, 48 h
The source made the active and inactive calls. Rule as the data show it: active = GI50 up to about 1.1 µM and inactive = higher.

// below: answered compounds
compound	GI50
c1ccc(Nc2nnc(-c3ccccc3Nc3ccccc3-c3nnc(Nc4ccccc4)s3)s2)cc1	> 100 µM (inactive)
O=c1c2cc(-c3ccccc3)sc2nc2n1N=C(c1ccccc1)CS2	> 100 µM (inactive)
Cn1c(=O)cc(NNc2ccc(Cl)c(Cl)c2)[nH]c1=O	8 µM (inactive)

Query COc1ccc(/C=N/C23CC4CC(CC(C4)C2)C3)cc1 on HL-60; GI50 returned: > 100 µM (inactive)

Query CCCCC#COS(=O)(=O)c1ccc(C)cc1 on HL-60; GI50 returned: > 100 µM (inactive)

Query Cc1ccccc1C1CC(=O)CC(c2ccccc2C)C12C(=O)NC(=O)NC2=O (stereo unspecified) on HL-60; GI50 returned: 55 µM (inactive)

Query O=C(OCCN=c1c2ccccc2ccc2ccccc12)c1cc([N+](=O)[O-])cc([N+](=O)[O-])c1 on HL-60; GI50 returned: > 100 µM (inactive)

Query CCOC(=O)CCC(C(=O)OCC)n1nnc2ccc(Nc3c(C)[n+]([O-])c4ccc(Cl)cc4[n+]3[O-])cc21 (stereo unspecified) on HL-60; GI50 returned: 39.2 µM (inactive)

Query C1=CC=C2NCCOCC/N=C3/C=CC=CC=C3NCCOCC/N=C\2C=C1 on HL-60; GI50 returned: 22.4 µM (inactive)

Query Nc1ncnc2c1ncn2CC(O)CO (stereo unspecified) on HL-60; GI50 returned: > 100 µM (inactive)

Query O=C(O)CP(=S)(S)c1ccccc1 (stereo unspecified) on HL-60; GI50 returned: > 100 µM (inactive)

----------
// reported GI50 for each item listed
system: SW-620; experiment: NCI tumour cell line growth inhibition, 48 h
Active and inactive are the calls of the source. No stated cut-off is given here; in the data, active = GI50 up to about 1.1 µM and inactive = higher. Square brackets hold non-standard residues; d marks the D form. Peptide text beside a SMILES is read from it. * marks the point of attachment. ξ: configuration not given here. NMeN = CN[C@@H](CC(N)=O)C(=O)O; NMeV = CN[C@H](C(=O)O)C(C)C; ξNMeV = CNC(C(=O)O)C(C)C; Boc = CC(C)(C)OC(=O)*; ξNMeA = CNC(C)C(=O)O

// below: answered compounds
compound	GI50
C=C(CC[C@@H](C(=O)O)[C@H]1[C@H](O)C[C@@]2(C)C3=CC[C@@H](C(=C)C)[C@](C)(CCC(=O)O)C3=CC[C@]12C)C(C)C	22.2 µM (inactive)
COc1ccc(C2=Nc3ccccc3SC(C)C2)cc1OC (stereo not drawn)	5.66 µM (inactive)
COc1cc(/C=N/N=C(\N)NO)cc(OC)c1OC	50 µM (inactive)
O=c1c2cccnc2ncn1CCN1CCCC1	> 100 µM (inactive)
C=C(C)C(=O)OC1C(C(C)CCCO)=C(CO)CC2OC(=O)C(=C)C21 (stereo not drawn)	14.7 µM (inactive)
COC(=O)C(C)N(C)C(=O)[C@H](CC(N)=O)N(C)C(=O)[C@@H]1CCCN1C(=O)[C@H](C(C)C)N(C)C(=O)C(C(C)C)N(C)C(=O)[C@@H](NC(=O)OC(C)(C)C)C(C)C (stereo partly drawn) (Boc-V[ξNMeV][NMeV]P[NMeN][ξNMeA]-OMe)	> 50 µM (inactive)

Query ClC1=C(Cc2ccccc2)Cc2ccc3c(c21)CCC3 on SW-620; GI50 returned: 25.7 µM (inactive)

Query COC12CC(O)=C(C(C)=O)C(=O)C1(C)c1c(OC(C)=O)c(C)c(O)c(C(C)=O)c1O2 (stereo not drawn) on SW-620; GI50 returned: 22.7 µM (inactive)

Every entry's value here was drawn from ChEMBL document CHEMBL1201862.
